test target: VchCAα (Vibrio cholerae, UniProt Q9KMP6)
Construct: gene VC_A0274
Sequence (Q9KMP6 21-239 limits assumed): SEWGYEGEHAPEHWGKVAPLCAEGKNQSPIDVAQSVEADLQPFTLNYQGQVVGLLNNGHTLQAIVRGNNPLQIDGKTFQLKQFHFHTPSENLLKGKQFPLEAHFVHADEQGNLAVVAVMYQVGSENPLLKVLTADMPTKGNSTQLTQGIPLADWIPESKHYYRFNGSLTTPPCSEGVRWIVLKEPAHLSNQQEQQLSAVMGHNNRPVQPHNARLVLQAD
protocol notes: stopped-flow CO2 hydrase assay
Assay type: biochemical
test settings: read-out: KI (μM)^a / VchCAα; CO2 substrate 1.7-17 mM, 10 mM HEPES pH 7.4, 10 mM NaClO4, 15 min preincubation
quantity name: Ki (µM)
Answer in µM, number only, no unit symbol.

Use these answered entries as a reference point.
>>> df
                                   compound                               test_target  observed_measurement
0              Nc1ccc(O)cc1 [compound 7, 7]  VchCAα (Vibrio cholerae, UniProt Q9KMP6)                  10.6
1  N#Cc1ccc(O)cc1 [compound 9, 4-cyanophenol]  VchCAα (Vibrio cholerae, UniProt Q9KMP6)                  17.2

--- query ---
Q: What value of measured Ki is listed for Oc1ccc(O)c(O)c1 [compound 5, 5] ?
A: 9.4

Source listed as paper PMC8843131.
